# Tested on: Vancomycin Resistant Staphylococcus aureus (VRSA)
# assayMethodText: Broth microdilution MIC/MBC, VRSA
# Assay type: cell-based
# conditionDescription: 15 VRSA strains, read-out: MIC 90
quantityName: MIC90 (µM)
Give bare numbers, in µM.

* O=C(O)[C@H](Cc1ccccc1)N1C(=O)/C(=C/c2cccc(Oc3ccc(Cl)c(Cl)c3)c2)SC1=S | 8
* O=C(O)[C@H](Cc1ccccc1)N1C(=O)/C(=C/c2cccc(Cc3ccc(Cl)c(Cl)c3)c2)SC1=S | 8

Qu. For the compound shown here, O=C(O)[C@H](Cc1ccccc1)N1C(=O)/C(=C/c2cccc(OC/C=C/c3ccc(Cl)c(Cl)c3)c2)SC1=S , give the reported MIC90.
Ans. 8

====

Answer each item with its documented MIC.
# System: B. licheniformis
# assayMethodText: Broth microdilution MIC/MBC, B. licheniformis
# Assay type: cell-based
# conditionDescription: Bacillus licheniformis, NRS712; B. licheniformis NRS 712 NR-2499; read-out: MIC
Numbers only, in µM.

Below, 3 molecules whose answers are already recorded.
* O=C(O)[C@H](Cc1ccccc1)N1C(=O)/C(=C/c2cccc(Oc3ccc(Cl)c(Cl)c3)c2)SC1=S | 4
* CC(=O)NC[C@H]1CN(c2ccc(N3CCOCC3)c(F)c2)C(=O)O1 [Linezolid, linezolid, reference compound] | 2
* O=C(O)[C@@H](Cc1ccccc1)N1C(=O)/C(=C/c2cccc(Cc3ccccc3)c2)SC1=S | 8

State the recorded MIC for every item in the following list.
1. O=C(O)[C@H](Cc1ccccc1)N1C(=O)/C(=C/c2cccc(-c3ccc(Cl)c(Cl)c3)c2)SC1=S
2. O=C(O)[C@H](Cc1ccccc1)N1C(=O)/C(=C/c2cccc(Cc3ccc(Cl)c(Cl)c3)c2)SC1=S
3. O=C(O)[C@H](Cc1ccccc1)N1C(=O)/C(=C/c2cccc(OC/C=C/c3ccc(Cl)c(Cl)c3)c2)SC1=S
4. O=C(O)[C@@H](Cc1ccccc1)N1C(=O)/C(=C/c2cccc(Oc3ccc(F)cc3)c2)SC1=S
5. O=C(O)[C@H](Cc1ccccc1)N1C(=O)/C(=C/c2cccc(-c3ccccc3)c2)SC1=S

Ans.
[4, 4, 4, 16, 8]

====

# System: Candida albicans
# assayMethodText: MIC against Candida albicans
# Type: cell-based
# conditionDescription: C. albicans NR 294436, unit from abstract, table prints none, read-out: MIC
Answer each item with its documented MIC.

Below, 6 compounds whose answers are already recorded.
- O=C(O)[C@H](Cc1ccccc1)N1C(=O)/C(=C/c2cccc(Oc3ccc(Cl)c(Cl)c3)c2)SC1=S: > 64 µM
- O=C(O)[C@H](Cc1ccccc1)N1C(=O)/C(=C/c2cccc(-c3ccc(Cl)c(Cl)c3)c2)SC1=S: > 64 µM
- O=C(O)[C@H](Cc1ccccc1)N1C(=O)/C(=C/c2cccc(Cc3ccc(Cl)c(Cl)c3)c2)SC1=S: > 64 µM
- O=C(O)[C@H](Cc1ccccc1)N1C(=O)/C(=C/c2cccc(-c3ccccc3)c2)SC1=S: > 64 µM
- O=C(O)[C@H](Cc1ccccc1)N1C(=O)/C(=C/c2cccc(OC/C=C/c3ccc(Cl)c(Cl)c3)c2)SC1=S: > 64 µM
- O=C(O)[C@@H](Cc1ccccc1)N1C(=O)/C(=C/c2cccc(Cc3ccccc3)c2)SC1=S: > 64 µM

State the recorded MIC for every item in the following list.
1. O=C(O)[C@@H](Cc1ccccc1)N1C(=O)/C(=C/c2cccc(Oc3ccc(F)cc3)c2)SC1=S
2. OC(Cn1cncn1)(Cn1cncn1)c1ccc(F)cc1F [Fluconazole, fluconazole, reference compound]
3. C[C@@H]1[C@H](O)[C@@H](C)/C=C/C=C/C=C/C=C/C=C/C=C/C=C/[C@H](O[C@@H]2O[C@H](C)[C@@H](O)[C@H](N)[C@@H]2O)C[C@@H]2O[C@](O)(C[C@@H](O)C[C@@H](O)[C@H](O)CC[C@@H](O)C[C@@H](O)CC(=O)O[C@H]1C)C[C@H](O)[C@H]2C(=O)O [Amphotericin B, amphotericin B, reference compound]

Ans.
1: > 64 µM; 2: < 0.5 µM; 3: 2 µM
